# target system: recombinant human GST-SYK (Homo sapiens, UniProt P43405)
# Construct: purchased Carna Biosciences 08-176
# experimental details: Homogeneous Time-Resolved Fluorescence (HTRF) assay for the recombinant human Syk enzyme
# Format: biochemical
# measurement parameters: HTRF assay, recombinant human GST-SYK; IC50 given as class symbols; read-out: rhSYK Activity
pIC50: −log10 of the molar value.
readout: pIC50

> print(dat)
                                   compound  assay.result
1  Cc1cc(Nc2nccc(C(F)(F)F)n2)cc(-c2ccc(N)nc2)c1 [Example 4.2]        > 7.00

Req: Which pIC50 value is on record for Cc1cc(Nc2nccc(C)n2)cc(-c2cncc(CCC(=O)O)c2)c1 [Example 2.90] ?
Resp: 6.00 to 7.00

Req: Further, for Cc1ccc(S(=O)(=O)Nc2ccc(-c3cccc(Nc4nccc(C(F)(F)F)n4)c3)nc2)cc1 [Example 2.9] ?
Resp: 6.00 to 7.00

Req: What would you report for CNC(=O)CNc1ccc(-c2cc(C)cc(Nc3nccc(C(F)(F)F)n3)c2)cn1 [Example 7.29] ?
Resp: > 7.00

Req: Try Cc1cc(Nc2nccc(C(F)(F)F)n2)cc(-c2ccc(C(=O)N3CCNC(=O)C3)nc2)c1 [Example 16.4] next.
Resp: > 7.00

Req: Input Cc1cc(Nc2nccc(C(F)(F)F)n2)cc(-c2ccc(C(=O)NCCO)nc2)c1 [Example 16.5]
Resp: > 7.00

Req: Please do the same for Cc1cc(Nc2nccc(C(F)(F)F)n2)cc(-c2ccnc(C(O)(CO)CO)c2)c1 [Example 9.65] as well.
Resp: > 7.00

Req: Follow-up entry: Cc1cc(Nc2nccc(C(F)(F)F)n2)cc(-c2ccc(C(C)(O)CO)nc2)c1 (centres unmarked) [Example 9.1]
Resp: > 7.00

---

# target system: recombinant human GST-SYK (Homo sapiens)
# Construct: purchased Carna Biosciences 08-176
# experimental details: Homogeneous Time-Resolved Fluorescence (HTRF) assay for the recombinant human Syk enzyme
# Type: biochemical
# measurement parameters: HTRF assay, recombinant human GST-SYK; IC50 given as class symbols; read-out: rhSYK Activity
We begin with a simple list: items and their reported IC50.

These recorded examples may help you get a feel for the data.
> print(dat)
                                   compound                             target.system    assay.result
1  Cc1cc(Nc2nccc(C(F)(F)F)n2)cc(-c2ccc(C(=O)NC3CCS(=O)(=O)C3)nc2)c1 (stereo not shown)  recombinant human GST-SYK (Homo sapiens)        < 100 nM
2  COCC1CN(C(=O)c2ccc(-c3cc(C)cc(Nc4nccc(C(F)(F)F)n4)c3)cn2)CCO1 (stereo not shown)  recombinant human GST-SYK (Homo sapiens)        < 100 nM
3  COc1ccnc(Nc2cc(C)cc(-c3ccc(C(C)(O)[C@H]4CC[C@H](C(=O)O)CC4)nc3)c2)n1 (single isomer, unassigned) [Example 9.17]  recombinant human GST-SYK (Homo sapiens)        < 100 nM
4  Cc1cc(Nc2nccc(C(F)(F)F)n2)cc(-c2ccc(C(=O)NCC(C)(C)O)nc2)c1  recombinant human GST-SYK (Homo sapiens)  100 to 1000 nM

Req: Returns the measured IC50 for the input compound. Input: Cc1cc(Nc2nccc(C(F)(F)F)n2)cc(-c2ccc(NC(C)(C#N)C(C)(C)C)nc2)c1 (stereo not shown) [Example 18.3]
Resp: 100 to 1000 nM

Req: Then what about the compound CCC(C)(Nc1ccc(-c2cc(C)cc(Nc3nccc(C(F)(F)F)n3)c2)cn1)C(=O)O (stereo not shown) ?
Resp: < 100 nM

Req: How about `CSCC[C@H](Nc1ccc(-c2cc(C)cc(Nc3nccc(C(F)(F)F)n3)c2)cn1)C(=O)O` ?
Resp: < 100 nM
